- System: NEK3
- PROTOCOL_CONDITIONS: concentration: 1 μM, replicates: in singlicate; n = 1;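 also: KINOMEscan kinase panel screen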

{"columns": ["COMPOUND", "%Inh (%)"],
 "data": [
  ["O=C(Nc1cccc(-c2nn3ncccc3c2-c2ccnc(Nc3cccc(C(F)(F)F)c3)n2)c1)c1c(F)cccc1F", 11],
  ["O=C(NCCNc1ccnc(Nc2ccc(F)cc2)n1)c1cc2ccccc2s1", 4],
  ["COc1cc(Nc2nccc(N3CCC(NC(=O)c4cccc(NC(C)=O)c4)C3)n2)cc(OC)c1OC (centres unmarked)", 54],
  ["CN(C1=C(c2ccccc2)C(=O)NC1=O)c1ccccc1", 9],
  ["Cc1nnc(-c2ccc(C)c(-c3ccc(C(=O)Nc4ccc(NS(C)(=O)=O)cc4)cc3)c2)o1", 0],
  ["O=C(NOCC1CC1)c1ccc(F)c(F)c1Nc1ccc(I)cc1Cl", 26],
  ["COc1ccc(Nc2nccc(N3CCC(NC(=O)Nc4cc(C)ccc4C)C3)n2)cc1 (centres unmarked)", 0],
  ["Cc1ccc(NC(=O)c2ccnc(N3CCN(C)CC3)c2)cc1-c1ccc(C(=O)NCC2CC2)cc1", 20]
]}

----------
- Test system: HUNK
- PROTOCOL_CONDITIONS: concentration: 1 μM, replicates: in singlicate; n = 1
Quick reference: %Inh of the listed items.

{"columns": ["COMPOUND", "%Inh"],
 "data": [
  ["CN(C(=O)c1ccc(-c2cc(-c3c[nH]nc3-c3ccccn3)ccn2)cc1)C1CCOCC1 [GW810083]", "0%"],
  ["Cc1cn2c(=O)cc(N3CCOCC3)nc2n1Cc1cccc(Cl)c1Cl [GSK2334006]", "9%"],
  ["[2H]C([2H])(c1cccc(C(F)(F)F)c1C)n1ccn2c(=O)nc(N3CCOCC3)cc12 [GSK2336394]", "6%"],
  ["O=C1Cc2cc(Nc3nc(NCc4cccc(S(=O)(=O)C(F)(F)F)c4)ncc3C(F)(F)F)ccc2N1", "8%"],
  ["c1ccc(-c2n[nH]cc2-c2ccnc3ccccc23)nc1 [GW271431]", "4%"],
  ["COc1ccc(Nc2nccc(N3CCC(NC(=O)Nc4cc(C)ccc4C)C3)n2)cc1 (stereo not drawn) [GSK1379741]", "0%"],
  ["CSc1ccc(-c2cc3ncnc(SCC(=O)O)c3s2)cc1", "0%"],
  ["Nc1nccc(-c2c(-c3ccc(F)cc3)ncn2C2CCN(CC(F)(F)F)CC2)n1 [SB-236560]", "0%"],
  ["Fc1ccc(-c2ncn(CCCN3CCOCC3)c2-c2ccccn2)cc1 [SB-211742]", "54%"],
  ["NS(=O)(=O)c1cccc(-c2ccc3ncc(N4CCOCC4)nc3c2)c1 [GSK1535721]", "0%"],
  ["Cc1nnc(-c2ccc(C)c(-c3ccc(C(=O)Nc4ccc(NS(C)(=O)=O)cc4)cc3)c2)o1 [GW702865]", "15%"],
  ["COc1cc2ncn(-c3cc(OCc4sccc4Cl)c(C(N)=O)s3)c2cc1OC [GSK448459]", "0%"],
  ["NCC(NC(=O)c1cc(-c2cn[nH]c2)c(-c2ccnc3[nH]ccc23)s1)c1ccccc1.O=C(O)C(F)(F)F.O=C(O)C(F)(F)F (stereo not drawn) [GSK1325775]", "0%"],
  ["Cc1nnc(-c2ccc3ncc(-c4ccc(S(C)=O)cc4)n3c2)o1 (stereo not drawn)", "0%"],
  ["Fc1ccc(-c2nn3c(OCC(F)(F)F)cccc3c2-c2ccncc2)cc1 [GW514784]", "31%"],
  ["CCc1nc(-c2cccc(C)c2)c(-c2ccnc(NCc3ccccc3)c2)s1", "0%"],
  ["Cn1cc(-c2ccc3c(c2)CCN3C(=O)Cc2ccccc2Cl)c2c(N)ncnc21 [GSK2608885]", "7%"],
  ["O=C(Nc1cccc(-c2nn3ncccc3c2-c2ccnc(Nc3cccc(C(F)(F)F)c3)n2)c1)c1c(F)cccc1F [GSK299495]", "4%"]
]}
